target: DNA gyrase (Escherichia coli) (UniProt P0AES6+P0AES4); test: Concentration required for 50% inhibition of gyrase.; format: protein-complex assay
Exercise: state measured IC50 for each of the compounds provided.
Write the answer as a number in µg/mL, unit excluded.

Q: Test system DNA gyrase (Escherichia coli) (UniProt P0AES6+P0AES4); read-out IC50; what value for CCNCC1CCN(c2c(F)cc3c(=O)c(C(=O)O)cn(C4CC4C)c3c2F)C1 (configuration not stated) ?
Result: 13

Q: Test system DNA gyrase (Escherichia coli) (UniProt P0AES6+P0AES4); read-out IC50; what value for CCNCC1CCN(c2c(F)cc3c(=O)c(C(=O)O)cn(-c4nccs4)c3c2F)C1 (configuration not stated) ?
Result: 30

Q: Test system DNA gyrase (Escherichia coli) (UniProt P0AES6+P0AES4); read-out IC50; what value for CCNCC1CCN(c2c(F)cc3c(=O)c(C(=O)O)cn(C)c3c2F)C1 (configuration not stated) ?
Result: 7.5

Q: Test system DNA gyrase (Escherichia coli) (UniProt P0AES6+P0AES4); read-out IC50; what value for C=Cn1cc(C(=O)O)c(=O)c2cc(F)c(N3CCC(CNCC)C3)c(F)c21 (configuration not stated) ?
Result: 2.9

Q: Test system DNA gyrase (Escherichia coli) (UniProt P0AES6+P0AES4); read-out IC50; what value for CCNCC1CCN(c2c(F)cc3c(=O)c(C(=O)O)cn(CC(F)(F)F)c3c2F)C1 (configuration not stated) ?
Result: 26

Q: Test system DNA gyrase (Escherichia coli) (UniProt P0AES6+P0AES4); read-out IC50; what value for CCNCC1CCN(c2c(F)cc3c(=O)c(C(=O)O)cn(C4CC4)c3c2F)C1 (configuration not stated) ?
Result: 1.4

Q: Test system DNA gyrase (Escherichia coli) (UniProt P0AES6+P0AES4); read-out IC50; what value for CCNCC1CCN(c2c(F)cc3c(=O)c(C(=O)O)cn(-c4ccc(F)cc4)c3c2F)C1 (configuration not stated) ?
Result: 14

====

test system: Escherichia coli; assay: Minimum inhibitory concentration against Escherichia coli (vogel); format: functional
QUANTITY KIND: MIC (µg/mL)
Write the answer as a number in µg/mL, unit excluded.

Q: Test system Escherichia coli; read-out MIC; what value for CCNCC1CCN(c2c(F)cc3c(=O)c(C(=O)O)cn(CC(F)(F)F)c3c2F)C1 (stereo not given) ?
Result: 0.8

Q: Test system Escherichia coli; read-out MIC; what value for CCNCC1CCN(c2c(F)cc3c(=O)c(C(=O)O)cn(C4CC4C)c3c2F)C1 (stereo not given) ?
Result: 0.8

Q: Test system Escherichia coli; read-out MIC; what value for CCNCC1CCN(c2c(F)cc3c(=O)c(C(=O)O)cn(C4CCC4)c3c2F)C1 (stereo not given) ?
Result: 0.2

Q: Test system Escherichia coli; read-out MIC; what value for CCNCC1CCN(c2c(F)cc3c(=O)c(C(=O)O)cn(-c4ccccc4)c3c2F)C1 (stereo not given) ?
Result: 1.6

Q: Test system Escherichia coli; read-out MIC; what value for C=Cn1cc(C(=O)O)c(=O)c2cc(F)c(N3CCC(CNCC)C3)c(F)c21 (stereo not given) ?
Result: 0.2

====

tested on: Staphylococcus aureus; assay: Minimum inhibitory concentration against Staphylococcus aureus (H-228).; type: functional
QUANTITY KIND: MIC (µg/mL)
Write the answer as a number in µg/mL, unit excluded.

Q: Record request: MIC value, item CCNCC1CCN(c2c(F)cc3c(=O)c(C(=O)O)cn(-c4ccc(F)cc4)c3c2F)C1 (centres undefined)
Result: 0.1

Q: Record request: MIC value, item CCNCC1CCN(c2c(F)cc3c(=O)c(C(=O)O)cn(C4CC4)c3c2F)C1 (centres undefined)
Result: 0.05

Q: Record request: MIC value, item CN1CCN(c2c(F)cc3c(=O)c(C(=O)O)cn(CCF)c3c2F)CC1
Result: 0.8

Q: Record request: MIC value, item O=C(O)c1cn(C2CC2)c2cc(N3CCNCC3)c(F)cc2c1=O
Result: 3.1

====

Exercise: state measured ED50 for each of the compounds provided.
tested on: Mus musculus; experiment: In vivo activity against Streptococcus pyogenes (po); assay type: functional; details: read-out: PD50
Write the answer as a number in mg/kg, unit excluded.

Q: Test system Mus musculus; read-out ED50; what value for CCNCC1CCN(c2c(F)cc3c(=O)c(C(=O)O)cn(CC)c3c2F)C1 (stereo not given) ?
Result: 9

Q: Test system Mus musculus; read-out ED50; what value for CCNCC1CCN(c2c(F)cc3c(=O)c(C(=O)O)cn(C4CC4)c3c2F)C1 (stereo not given) ?
Result: 2

Q: Test system Mus musculus; read-out ED50; what value for CN1CCN(c2cc3c(cc2F)c(=O)c(C(=O)O)cn3-c2ccc(F)cc2)CC1 ?
Result: 7

====

tested on: Staphylococcus aureus; assay: Minimum inhibitory concentration against Staphylococcus aureus (H-228).; type: functional
Exercise: state measured MIC for each of the molecules provided.
Write the answer as a number in µg/mL, unit excluded.

Q: Test system Staphylococcus aureus; read-out MIC; what value for CN1CCN(c2cc3c(cc2F)c(=O)c(C(=O)O)cn3-c2ccc(F)cc2)CC1 [DIFLOXACIN] ?
Result: 1.6

Q: Test system Staphylococcus aureus; read-out MIC; what value for C=Cn1cc(C(=O)O)c(=O)c2cc(F)c(N3CCC(CNCC)C3)c(F)c21 (centres undefined) ?
Result: 0.4

Q: Test system Staphylococcus aureus; read-out MIC; what value for CNn1cc(C(=O)O)c(=O)c2cc(F)c(N3CCN(C)CC3)cc21 [AMIFLOXACIN] ?
Result: 1.6

Q: Test system Staphylococcus aureus; read-out MIC; what value for CCNCC1CCN(c2c(F)cc3c(=O)c(C(=O)O)cn(OC)c3c2F)C1 (centres undefined) ?
Result: 0.8

Q: Test system Staphylococcus aureus; read-out MIC; what value for CCNCC1CCN(c2c(F)cc3c(=O)c(C(=O)O)cn(NC)c3c2F)C1 (centres undefined) ?
Result: 0.4

Q: Test system Staphylococcus aureus; read-out MIC; what value for CCNCC1CCN(c2c(F)cc3c(=O)c(C(=O)O)cn(C4CC4C)c3c2F)C1 (centres undefined) ?
Result: 0.8

Q: Test system Staphylococcus aureus; read-out MIC; what value for CCNCC1CCN(c2c(F)cc3c(=O)c(C(=O)O)cn(CC)c3c2F)C1 (centres undefined) [MERAFLOXACIN] ?
Result: 0.1

Q: Test system Staphylococcus aureus; read-out MIC; what value for CCNCC1CCN(c2c(F)cc3c(=O)c(C(=O)O)cn(C4CCCC4)c3c2F)C1 (centres undefined) ?
Result: 0.4

Q: Test system Staphylococcus aureus; read-out MIC; what value for CCNCC1CCN(c2c(F)cc3c(=O)c(C(=O)O)cn(-c4nccs4)c3c2F)C1 (centres undefined) ?
Result: 25

====

system: Klebsiella pneumoniae; assay: Minimum inhibitory concentration against Klebsiella pneumoniae (MGH-2); assay type: functional
QUANTITY KIND: MIC (µg/mL)
Write the answer as a number in µg/mL, unit excluded.

Q: Record request: MIC value, item O=C(O)c1cn(C2CC2)c2cc(N3CCNCC3)c(F)cc2c1=O [CIPROFLOXACIN]
Result: 0.1

Q: Record request: MIC value, item CN1CCN(c2c(F)cc3c(=O)c(C(=O)O)cn(CCF)c3c2F)CC1 [FLEROXACIN]
Result: 0.2

Q: Record request: MIC value, item CCNCC1CCN(c2c(F)cc3c(=O)c(C(=O)O)cn(CC4CC4)c3c2F)C1 (stereo not given)
Result: 1.6

Q: Record request: MIC value, item CCNCC1CCN(c2c(F)cc3c(=O)c(C(=O)O)cn(C(C)C)c3c2F)C1 (stereo not given)
Result: 0.8

Q: Record request: MIC value, item CCNCC1CCN(c2c(F)cc3c(=O)c(C(=O)O)cn(CCF)c3c2F)C1 (stereo not given)
Result: 0.4

====

system: Escherichia coli; assay: Minimum inhibitory concentration against Escherichia coli (vogel); assay type: functional
QUANTITY KIND: MIC (µg/mL)
Write the answer as a number in µg/mL, unit excluded.

Q: Record request: MIC value, item CCNCC1CCN(c2c(F)cc3c(=O)c(C(=O)O)cn(NC)c3c2F)C1 (configuration not stated)
Result: 0.2

Q: Record request: MIC value, item CCNCC1CCN(c2c(F)cc3c(=O)c(C(=O)O)cn(OC)c3c2F)C1 (configuration not stated)
Result: 0.4

Q: Record request: MIC value, item CCNCC1CCN(c2c(F)cc3c(=O)c(C(=O)O)cn(CC)c3c2F)C1 (configuration not stated)
Result: 0.1

Q: Record request: MIC value, item CCNCC1CCN(c2c(F)cc3c(=O)c(C(=O)O)cn(-c4ccc(F)cc4)c3c2F)C1 (configuration not stated)
Result: 0.8

Q: Record request: MIC value, item CN1CCN(c2cc3c(cc2F)c(=O)c(C(=O)O)cn3-c2ccc(F)cc2)CC1
Result: 0.4

Q: Record request: MIC value, item CCn1cc(C(=O)O)c(=O)c2cc(F)c(N3CCNCC3)cc21
Result: 0.025

Q: Record request: MIC value, item CCNCC1CCN(c2c(F)cc3c(=O)c(C(=O)O)cn(C4(C)CC4)c3c2F)C1 (configuration not stated)
Result: 0.8

Q: Record request: MIC value, item CCNCC1CCN(c2c(F)cc3c(=O)c(C(=O)O)cn(CC4CC4)c3c2F)C1 (configuration not stated)
Result: 0.8

Q: Record request: MIC value, item CCNCC1CCN(c2c(F)cc3c(=O)c(C(=O)O)cn(CCF)c3c2F)C1 (configuration not stated)
Result: 0.1

Q: Record request: MIC value, item CN1CCN(c2c(F)cc3c(=O)c(C(=O)O)cn(CCF)c3c2F)CC1
Result: 0.2

Q: Record request: MIC value, item CCNCC1CCN(c2c(F)cc3c(=O)c(C(=O)O)cn(-c4nccs4)c3c2F)C1 (configuration not stated)
Result: 1.6

Q: Record request: MIC value, item CCNCC1CCN(c2c(F)cc3c(=O)c(C(=O)O)cn(C4CC4)c3c2F)C1 (configuration not stated)
Result: 0.05

Q: Record request: MIC value, item CCNCC1CCN(c2c(F)cc3c(=O)c(C(=O)O)cn(C(C)C)c3c2F)C1 (configuration not stated)
Result: 0.8

Q: Record request: MIC value, item CCNCC1CCN(c2c(F)cc3c(=O)c(C(=O)O)cn(C4CCCC4)c3c2F)C1 (configuration not stated)
Result: 3.1

Q: Record request: MIC value, item CCNCC1CCN(c2c(F)cc3c(=O)c(C(=O)O)cn(C)c3c2F)C1 (configuration not stated)
Result: 0.4

Q: Record request: MIC value, item CNn1cc(C(=O)O)c(=O)c2cc(F)c(N3CCN(C)CC3)cc21
Result: 0.1

Q: Record request: MIC value, item CCNCC1CCN(c2c(F)cc3c(=O)c(C(=O)O)cn(C4CCCCC4)c3c2F)C1 (configuration not stated)
Result: 6.3

Hey, just so you know, these numbers are from ChEMBL document CHEMBL1124223.
